target: recombinant human HDAC6 (Homo sapiens (Human), UniProt Q9UBN7); assay: Enzymatic screening, HDAC6 inhibition (fluorogenic FdL_G substrate)
Sequence (Q9UBN7 whole entry): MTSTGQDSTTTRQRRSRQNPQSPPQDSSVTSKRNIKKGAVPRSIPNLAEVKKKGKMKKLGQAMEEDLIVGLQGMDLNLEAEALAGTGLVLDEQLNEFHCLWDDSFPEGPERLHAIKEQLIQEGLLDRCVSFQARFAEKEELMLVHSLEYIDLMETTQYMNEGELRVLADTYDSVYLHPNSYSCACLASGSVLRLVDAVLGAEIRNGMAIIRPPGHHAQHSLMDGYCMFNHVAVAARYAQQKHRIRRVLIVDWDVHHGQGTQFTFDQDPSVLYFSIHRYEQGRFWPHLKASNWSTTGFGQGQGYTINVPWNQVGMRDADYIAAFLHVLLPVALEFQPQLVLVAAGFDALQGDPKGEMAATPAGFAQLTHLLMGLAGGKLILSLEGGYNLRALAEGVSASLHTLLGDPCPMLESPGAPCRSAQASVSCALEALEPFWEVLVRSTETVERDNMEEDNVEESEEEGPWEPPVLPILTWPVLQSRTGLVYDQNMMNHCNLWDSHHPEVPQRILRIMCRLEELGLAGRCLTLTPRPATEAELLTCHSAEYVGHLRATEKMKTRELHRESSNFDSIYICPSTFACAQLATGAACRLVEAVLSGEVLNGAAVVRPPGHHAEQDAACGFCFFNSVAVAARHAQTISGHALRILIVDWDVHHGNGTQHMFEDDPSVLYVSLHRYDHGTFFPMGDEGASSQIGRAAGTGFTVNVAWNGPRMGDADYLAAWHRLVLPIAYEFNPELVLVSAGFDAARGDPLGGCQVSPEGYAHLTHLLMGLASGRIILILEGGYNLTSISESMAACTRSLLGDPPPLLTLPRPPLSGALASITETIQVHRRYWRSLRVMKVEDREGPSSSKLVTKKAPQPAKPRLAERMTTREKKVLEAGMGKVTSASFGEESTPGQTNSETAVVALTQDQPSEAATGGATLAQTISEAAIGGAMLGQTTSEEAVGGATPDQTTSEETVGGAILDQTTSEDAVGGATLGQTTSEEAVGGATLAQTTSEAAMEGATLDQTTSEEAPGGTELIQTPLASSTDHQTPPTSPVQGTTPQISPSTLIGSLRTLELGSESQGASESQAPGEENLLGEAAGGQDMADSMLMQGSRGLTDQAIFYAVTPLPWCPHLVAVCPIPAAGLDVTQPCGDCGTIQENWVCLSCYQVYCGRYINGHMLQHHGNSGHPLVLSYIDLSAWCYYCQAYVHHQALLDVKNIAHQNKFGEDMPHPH
measure: IC50 (nM)

Nc1nc2ccc(-c3cn(Cc4ncc(-c5nnc(C(F)F)o5)cc4F)nn3)cc2s1 : 32
Nc1nc2ccc(-c3cnn(Cc4ccc(-c5nnc(C(F)F)o5)cn4)c3)cc2s1 : 40
Nc1ccc(-c2cn(C(CO)c3ccc(-c4nnc(C(F)F)o4)cc3)nn2)cn1 (centres unmarked) : 36
Nc1nc2cc(-c3cn(Cc4ccc(-c5nnc(C(F)F)o5)cn4)cn3)ccc2o1 : 15

A = Nc1cc2cc(-c3cn(Cc4ccc(-c5nnc(C(F)F)o5)cc4F)nn3)ccc2cn1
B = [2H]C([2H])(c1ccc(-c2nnc(C(F)F)o2)cc1)n1cc(-c2ccc3nc(N)sc3c2)nn1
Please indicate which item has the smaller measured IC50: A versus B Please reply using the label of the selected record.
B
(B: 21 nM, A: 59 nM)
